Test system: XIP peptide (Xip251-270) binding
Experiment: small-molecule binders of XIP peptide, primary screen, biochemical, small-molecule microarray, fluorescence 635/667 nm, 0.1 µg/mL protein (AID 1182)
Details: fluorescent protein binding, 635 nm, higher = more signal, called active from +8 up or from −8 down
We'd kindly ask you to apply these composite z-score classes: low = under 0.2, intermediate = from 0.2 up to 0.8, high = 0.8 and over

Some entries whose results are on file:
[
  {
    "molecule": "C=CCNC(=O)[C@@H]1[C@H]2C(=O)O[C@H](c3ccccc3)[C@H](c3ccccc3)N2[C@H](c2ccc(O)cc2)[C@@]12C(=O)N(C(=O)OCCOC)c1ccccc12",
    "class label": "high"
  },
  {
    "molecule": "CC(C)CNC(=O)[C@@]1(c2ccc([N+](=O)[O-])cc2)CC(=O)N(CC23CC4CC(CC(C4)C2)C3)[C@@H]1c1ccc(CO)cc1",
    "class label": "high"
  },
  {
    "molecule": "O=C1C[C@@](C(=O)NC2CC2)(c2ccc([N+](=O)[O-])cc2)[C@@H](c2ccc(CO)cc2)N1CC12CC3CC(CC(C3)C1)C2",
    "class label": "low"
  }
]

*Q* Kindly identify the class of Cc1ccc(S[C@]2(C(=O)NC3CC3)CC(=O)N(C3CCCCC3)[C@@H]2c2ccc(CO)cc2I)cc1 .
*A* high

*Q* // return the class label for COC(=O)c1c(CC[C@@H](CO)NC(=O)N[C@@H](Cc2ccccc2)Cn2cc(C3(O)CCCCC3)nn2)oc(C(C)=O)c1C(=O)OC
*A* intermediate

*Q* Form: Item = COCCCNC(=O)[C@@]1(CCC(=O)OC(C)(C)C)N=C(c2ccc(OCCCO)cc2)O[C@H]1c1ccccc1CN=[N+]=[N-] ; Class = ?
*A* intermediate

*Q* For this molecule, which bin applies? Cc1ccc([C@H]2[C@H](C(=O)O)[C@H](Sc3ccccc3)[C@@H](C(C)C)N2S(=O)(=O)c2ccc(C)cc2)cc1
*A* high

*Q* Looking at N#Cc1ccc(NN2C(C(O)C3CCCCC3)C=CC3C(=O)N(c4ccccc4)C(=O)C32)cc1 (centres undefined) , which class would you pick?
*A* intermediate

*Q* Hello team, could you let me know which band the following molecule falls into: O=C1OCC=C[C@H]2OC34C=CCN(c5ccc(Cl)cc5)C(=O)[C@H]3N(CCCCCCO)C(=O)[C@@H]4[C@@H]12 (some centres undefined)
*A* low

*Q* Place this molecule in its band: CCCCC(O)C1C=CC2C(=O)N(C3CCCCC3)C(=O)C2N1Nc1ccc(OC)cc1 (centres undefined)
*A* intermediate

---

Test system: XIP peptide (Xip251-270) binding
Assay: small-molecule binders of XIP peptide, primary screen, biochemical, small-molecule microarray, fluorescence 635/667 nm, 0.1 µg/mL protein (AID 1182)
Conditions: fluorescent protein binding, 635 nm, higher = more signal, called active from +8 up or from −8 down
Parameter composite z-score: see the listing below.
I only need the number, thanks.

[
  {
    "compound": "COc1ccc(C#Cc2ccc3c(c2)[C@]2(C(=O)N3)[C@H](C(=O)NC[C@H](O)c3ccccc3)[C@H]3C(=O)O[C@H](c4ccccc4)[C@H](c4ccccc4)N3[C@@H]2c2ccc(OCCO)cc2)cc1",
    "composite z-score": -0.0969
  }
]

Field: next compound
*Q* // map C=C(C(=O)CC[C@H](OC(C)=O)c1ccc(OCCO)cc1)C(C)C to recorded composite z-score (system: XIP peptide (Xip251-270) binding)
*A* 0.0512

---

Assay: binders of probe aFGF2 on microarray, primary screen, stem cell growth factor project, biochemical, small-molecule microarray, fluorescence 635/667 (AID 1067);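 note: measures binding of biotinylated aFGF2 protein to printed compounds on slides; z-score merges feature fluorescence and signal-to-noise across triplicate slides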
Conditions: higher = more signal
Decide using composite z-score: a value greater than or equal to -0.06 is Satisfied, a smaller one is Not satisfied.

Solved entries:
[
  {
    "molecule": "CC(C)CNC(=O)[C@@]1(c2ccc([N+](=O)[O-])cc2)CC(=O)N(CC23CC4CC(CC(C4)C2)C3)[C@@H]1c1ccc(CO)cc1I",
    "class label": "Satisfied"
  },
  {
    "molecule": "CCN(CC)c1ccc(N2CC=CC34O[C@@H]5C=CCCOC(=O)C5[C@H]3C(=O)N(CCCCCO)[C@@H]4C2=O)cc1 (some centres not stated)",
    "class label": "Not satisfied"
  },
  {
    "molecule": "COCCOC(=O)N1C(=O)[C@@]2(c3cc(C#CCC(C(=O)OC)C(=O)OC)ccc31)[C@H](c1ccccc1OCCO)N1[C@H](c3ccccc3)[C@H](c3ccccc3)OC(=O)[C@H]1[C@@H]2C(N)=O",
    "class label": "Satisfied"
  },
  {
    "molecule": "COCCOC(=O)N1C(=O)[C@@]2(c3cc(C#CCCO)ccc31)[C@H](c1ccccc1OCCO)N1[C@H](c3ccccc3)[C@H](c3ccccc3)OC(=O)[C@H]1[C@@H]2C(=O)N1CCN(c2ncccn2)CC1",
    "class label": "Satisfied"
  },
  {
    "molecule": "C=C[C@@H](COC(C)=O)N(Cc1ccccc1[N+](=O)[O-])S(=O)(=O)c1ccc(Br)cc1",
    "class label": "Satisfied"
  },
  {
    "molecule": "COc1ccc([Si](C)(C)[C@@H]2[C@@H](CC(=O)N3CCC[C@H]3CO)O[C@]3(C(=O)N(C)c4c(Br)cc(C)cc43)[C@H]2C)cc1",
    "class label": "Not satisfied"
  },
  {
    "molecule": "CC(=O)C1=CCC(c2ccccc2)N(S(=O)(=O)c2ccc(C)cc2)C1 (configuration not stated)",
    "class label": "Satisfied"
  },
  {
    "molecule": "COCCOC(=O)N1C(=O)[C@@]2(c3ccccc31)[C@H](C(=O)Nc1nc3ccccc3s1)[C@H]1C(=O)O[C@H](c3ccccc3)[C@H](c3ccccc3)N1[C@@H]2c1ccc(OCCO)cc1",
    "class label": "Satisfied"
  },
  {
    "molecule": "O=C1O[C@H](c2ccccc2)[C@H](c2ccccc2)N2[C@H]1[C@@H](C(=O)O)[C@]1(C(=O)Nc3ccc(C#CC4(O)CCCCCC4)cc31)[C@H]2c1ccc(OCCO)cc1",
    "class label": "Satisfied"
  },
  {
    "molecule": "COc1c(C)cc(-c2cc3c(c(-c4ccc(Oc5ccccc5)cc4)n2)[Si](C(C)C)(C(C)C)OC3)cc1C",
    "class label": "Not satisfied"
  }
]

As a next step, examine the molecule that follows.
*Q* Record NCCCCCCNC(=O)[C@H]1C[C@H]2C(=O)NCC(=O)N2[C@H]1c1cccc(OCCO)c1 ; criterion: composite z-score no lower than -0.06. Met?
*A* Not satisfied

---

composite z-score listing for selected compounds.
Molecular target: Epidermal growth factor receptor (Homo sapiens)
Test: EGFR binders on small-molecule microarrays, primary screen, biochemical, small-molecule microarray, 635 nm fluorescence (AID 1104);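 note: score merges 667 nm emission intensity with spot signal to noise over triplicate slides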
Conditions: EGFR binding, higher = more signal
Write the number on its own, no unit after it.

Observe how each entry below is paired with its result.
[
  {
    "structure notation": "Cc1ccc(S[C@]2(C(=O)NCC(C)C)CC(=O)N(Cc3ccccc3Cl)[C@@H]2c2ccc(CO)cc2)cc1",
    "composite z-score": -1
  },
  {
    "structure notation": "C[C@]1(C(=O)NCc2ccccc2)c2ccccc2C(=O)N(Cc2cc(F)cc(C(F)(F)F)c2)[C@H]1c1ccc(CO)cc1",
    "composite z-score": -0.505
  },
  {
    "structure notation": "CCCCC=C[C@@H](NC(=O)c1ccco1)c1ccccc1",
    "composite z-score": 0.12
  },
  {
    "structure notation": "COC(=O)[C@@]1(Cc2ccccc2)[C@H]2c3cc(C(=O)N(C)C)n(Cc4cc(C)n(C)n4)c3C[C@H]2CN1C(=O)c1ccccc1",
    "composite z-score": 0.3
  },
  {
    "structure notation": "CC(C)C(=C=CC[C@H](O)c1ccccc1OCCO)C[C@H](O)c1ccccn1",
    "composite z-score": -0.536
  }
]

*Q* Recorded composite z-score of CN(C)CCCNC(=O)[C@@]1(Cc2ccccc2I)c2ccccc2C(=O)N(Cc2ccccc2C(F)(F)F)[C@H]1c1ccc(CO)cc1 , please.
*A* -1.62

*Q* If you can, please state the reported composite z-score value of CC(=CC1CCCCC1)[C@@H](NC(=O)c1ccc(C(F)(F)F)cc1)c1ccc(-c2ccccc2)cc1 .
*A* -0.365

*Q* Query: composite z-score; subject: O=C1C[C@]2(c3ccc([N+](=O)[O-])cc3)C(=O)N(CC(F)(F)F)c3cc(CO)ccc3[C@H]2N1CC12CC3CC(CC(C3)C1)C2
*A* -0.736

---

System: Chordin-like protein 2 (CHRDL2)
Assay: CHRDL2 small-molecule binders, primary screen, biochemical, small-molecule microarray, 635 nm fluorescence (AID 1126);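 note: printed compound slides probed with Chrdl2 protein at 4 µg/mL for 1 h at 4 C; score merges 667 nm emission intensity with signal to noise over three replicate slides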
Settings: small-molecule microarray binding, fluorescence 635 nm; higher = more signal
Outcome label depends on composite z-score relative to -0.04: at/above gives class 1, below gives class 0.

[
  {
    "compound": "Cc1cc(C)c(C(O)C2C=CC3C(=O)N(C)C(=O)C3N2Nc2ccccc2)c(C)c1 (stereo not drawn)",
    "test system": "Chordin-like protein 2 (CHRDL2)",
    "class label": "class 1"
  },
  {
    "compound": "O=c1oc(-c2ccccc2)nc2cc(Br)ccc12",
    "test system": "Chordin-like protein 2 (CHRDL2)",
    "class label": "class 1"
  }
]

*Q* Has COc1ccc(C(O)C2C=CC3C(=O)N(C)C(=O)C3N2Nc2ccccc2)cc1OCc1ccccc1 (stereo not drawn) a recorded composite z-score greater than or equal to -0.04?
*A* class 0

*Q* Say whether COCCOC(=O)N1C(=O)[C@@]2(c3cc(C#CCNC(N)=O)ccc31)[C@H](C(=O)N1CCN(c3ncccn3)CC1)[C@H]1C(=O)O[C@H](c3ccccc3)[C@H](c3ccccc3)N1[C@@H]2c1ccccc1OCCO shows composite z-score of -0.04 or more.
*A* class 1

*Q* Dear colleague, could you confirm whether CCOC(=O)C1=C[C@@H](CC)N(S(=O)(=O)c2ccc(C)cc2)[C@H]1c1ccccc1 has composite z-score at or above -0.04?
*A* class 1

*Q* Given the entry CC(C)C[C@@H]1NC(=O)[C@H]2C[C@@H](C(=O)NCCCCCCNC(=O)CS)[C@@H](c3cccc(OCCO)c3)N2C1=O , answer whether its composite z-score meets or surpasses -0.04.
*A* class 1

*Q* Could you verify whether the entry O=C1C2C=CC(C(O)c3cccs3)N(Nc3ccccc3F)C2C(=O)N1c1ccccc1 (stereo not drawn) shows composite z-score of no less than -0.04?
*A* class 0

*Q* Reported composite z-score at or above -0.04? CC(C)C(=C=CC[C@H](O)c1ccccc1OCCO)C[C@H](O)c1ccccn1
*A* class 0

meta.source: PubChem BioAssay
